Molecular target: c-Src SH2;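 also: peptide library displayed on the E. coli surface as eCPX fusions, selected cells deep-sequenced, score is each peptide's frequency after selection divided by its frequency in the input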
Assay: SH2 binding enrichment of the phosphorylated peptide, bacterial display (enrichment ratio); higher = better substrate or ligand; peptides without Tyr show the background
metric: SH2 binding enrichment

>>> measured("SSAAGYACLAF [MVD_Y131_YF]")
1.55
>>> measured("RLNAIYQNNLT [GSR_Y158]")
0.796
>>> measured("IMITDYLPLFR [INSR_Y87_L89P]")
0.659
>>> measured("RSDSTYRMSAT [NHS_Y1532_S1531T]")
0.341
>>> measured("FFRKFCNKSED [RYR1_Y4864_Y4864C]")
0.513
>>> measured("FKDYFYCWNTS [AICDA_Y146_F151S]")
0.375
>>> measured("LGGAMYFLEAE [PKHD1_Y452_YF]")
0.802
>>> measured("IHADICRWFNI [MARS1_Y344_Y344C]")
0.526
>>> measured("SVVVPCEPPEV [TP53_Y220_Y220C]")
0.571
>>> measured("PTTKTYFPHFD [HBA1_Y43]")
0.396
>>> measured("PRSRSYFSTSI [REPS2_Y462_S463F]")
0.769
>>> measured("SIKDKHVTALF [KCNH2_Y611_Y611H_YF]")
0.443
>>> measured("GYIISYREEEQ")
0.527
>>> measured("CKLCQYFLDHL [ATRX_Y1849_Y1847C_YF]")
1.1
>>> measured("CKLCQYYLDHL [ATRX_Y1849_Y1847C]")
1.39
>>> measured("LGPDGYSTVDR [ARVCF_Y901]")
29.2
>>> measured("NGSFLYVIISQ [LRP1B_Y1988_R1987L]")
0.47
>>> measured("DLQDEYDFKRK [STAT1_Y170_C174R]")
0.505
>>> measured("LFIDSYEKDVA [PGM1_Y521_YF]")
0.787
>>> measured("EFGFRYELVQY [UGGT2_Y1289_Y1285F]")
1.39
>>> measured("VICRRYLVMQR [IL3RA_Y328]")
0.354
>>> measured("RVNSAYQDKVS [ACAN_Y100]")
0.455
>>> measured("SRLDSYVRSLP [TRAPPC1_Y133]")
0.546
>>> measured("SHLSAFPALEG [CD5_Y465_Y465F]")
0.529
>>> measured("RAIGHYSATSK [FAM120A_Y328_Y327H]")
0.619
>>> measured("RGDTVYTVNRM [KBTBD13_Y404]")
0.423
>>> measured("SFPPTYRFERG [INPPL1_Y661_YF]")
0.442
>>> measured("EPVSDYINASI [PTPN11_Y304_N308S]")
0.512
>>> measured("EEQFFYEKAIL [BCCIP_Y257_E254Q]")
0.53

---

Listed here: items and their measured phosphorylation enrichment.
Target: Fyn (UniProt P06241)
Sequence (P06241 whole entry, looked up): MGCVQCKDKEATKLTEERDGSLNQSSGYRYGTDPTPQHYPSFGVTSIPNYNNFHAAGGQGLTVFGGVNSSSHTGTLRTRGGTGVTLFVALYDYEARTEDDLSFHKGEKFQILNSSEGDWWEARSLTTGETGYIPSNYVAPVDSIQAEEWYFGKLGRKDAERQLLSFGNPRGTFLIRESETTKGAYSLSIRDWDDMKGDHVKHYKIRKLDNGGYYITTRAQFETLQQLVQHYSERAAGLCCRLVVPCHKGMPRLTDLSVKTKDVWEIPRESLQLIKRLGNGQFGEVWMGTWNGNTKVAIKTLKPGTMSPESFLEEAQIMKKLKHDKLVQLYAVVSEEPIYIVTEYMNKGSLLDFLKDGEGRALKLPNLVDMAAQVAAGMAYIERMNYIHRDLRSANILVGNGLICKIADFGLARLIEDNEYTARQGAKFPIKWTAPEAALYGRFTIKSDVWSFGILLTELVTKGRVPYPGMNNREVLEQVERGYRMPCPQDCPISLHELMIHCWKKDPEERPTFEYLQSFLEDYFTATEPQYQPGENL
Test: phosphorylation enrichment, bacterial display (enrichment ratio); higher = better substrate or ligand; peptides without Tyr show the background
metric: phosphorylation enrichment

>>> measured("NPSFNYEIVNR [DYNC1H1_Y3379_YF]")
0.445
>>> measured("FRIGPYQPSVP [MATR3_Y784_N787S_YF]")
0.453
>>> measured("LGGAMYFLEAE [PKHD1_Y452_YF]")
1.13
>>> measured("FSNPAYYVLEG [INPPL1_Y986_N982S]")
1.32
>>> measured("VKALKYKSMKI [ITGA11_Y1098_L1093V]")
0.329
>>> measured("RKNAKYLLKGE [CDH5_Y82]")
0.64
>>> measured("EEKSCYILHSS [PATJ_Y783_E780K]")
0.753
>>> measured("KSLFHYRQFSA [CPS1_Y1491_YF]")
0.466
>>> measured("KGEDFYCVTCP [FHL1_Y149_H154P]")
4.22
>>> measured("MDNQEYKDAYT [BRDT_Y331_K336T]")
0.589
>>> measured("EVESPYEVRDY [GIGYF2_Y1168_H1171R]")
5.17
>>> measured("ACRSLYGGFVE [MVD_Y164]")
11.2
>>> measured("FESPRYLQVRI [FANCA_Y488_H492R]")
0.513
>>> measured("SHSMRYFFTAV [HLA-C_Y31_D33F]")
0.53
>>> measured("IQRSLYDCPAS [PDGFRA_Y762_R764C]")
0.732
>>> measured("TDTAAYEERLR [SPTB_Y474_V478L]")
0.67
>>> measured("LQEQNYLAVDS [FAM114A1_Y115]")
1.47
>>> measured("LQIPMYEVQWK [KIT_Y553_K550I]")
2.45
>>> measured("EATKGHLDDPT [G6PD_Y322_Y322H]")
0.584
>>> measured("AEPHTYEEPGR [EPHA8_Y616]")
0.489
>>> measured("WRPFGYPRRRR [BCS1L_Y181]")
0.518
>>> measured("FHKALYTVRSY [PDE6C_Y266]")
0.515
>>> measured("LLIVEYAKYGS [RET_Y806]")
0.622
>>> measured("WNDLDYVDSRR [GAA_Y407_M408V]")
0.373
>>> measured("HPWPQYTTRAP [FNDC1_Y1281]")
0.554
>>> measured("ATQDNYVLEVR [PTPRZ1_Y2179_D2178N]")
0.452
>>> measured("MSRNLYSGDCY [DDR2_Y736_Y740C]")
1.96
>>> measured("RGMVMYTSKDR [ZG16B_Y136]")
0.493
>>> measured("PVKAAYQKVVA [HBB_Y131_Q128K]")
0.648
>>> measured("SVVVPYEPAEV [TP53_Y220_P223A]")
0.433
>>> measured("GTGTAYLCGVK [ALPL_Y117_A114G]")
0.435
>>> measured("YGTAQYCCRMG [LRRK2_Y2023_I2020T]")
1.01
>>> measured("GITTGYLVLKE [DNMT3B_Y588_A585T]")
0.404
>>> measured("MSSHHCDFKKF [ZNF445_Y428_Y428C_YF]")
0.392
>>> measured("HDRGNYVQLNM [RECQL4_Y353_R355Q]")
0.493
>>> measured("FTAVGYHKHFT [NOMO1_Y1137_I1141F]")
0.431
>>> measured("PRSRSYFSTSI [REPS2_Y462_S463F]")
0.468
>>> measured("RLAKRYLIWEC [SCN5A_Y694_Q692K]")
0.375
>>> measured("TTICKYSTPME [GUCY2C_Y839]")
0.35
>>> measured("ASKEPYFVRCI [MYO1D_Y585_YF]")
0.622
>>> measured("RIVEIYSRRLQ [GCH1_Y175]")
0.921
>>> measured("IPPRRYFCSGV [STAMBP_Y36_R38C]")
0.478
>>> measured("FIRKDYEACKA [BBS4_Y48_YF]")
0.445
>>> measured("KGNMFYENSFA [EGFR_Y113_R108K_YF]")
0.412
>>> measured("HNLFSYPTKFE [MYO3A_Y1396_H1400Y_YF]")
0.565
>>> measured("RELGEYPLAEF [ALDH1A3_Y492_A493P_YF]")
0.636
>>> measured("FECKWYIPLTD [BCR_Y756_D752E_YF]")
0.434
>>> measured("RQNNSYTCFTA [SLC20A2_Y386_R382Q_YF]")
0.537
>>> measured("LEDPMYDIIRD [RP9_Y142_H137L]")
7.34
>>> measured("SGTFQYIIAKF [FOXL2_Y83_I80T_YF]")
0.532
>>> measured("MSSLFYANTLF [HOXB7_Y6_YF]")
0.905
>>> measured("SIKDKHVTALF [KCNH2_Y611_Y611H_YF]")
0.417
>>> measured("DPLLTYLFPPK [LMNA_Y481_R482L]")
1.8
>>> measured("VSFDEYRFRSF [CFTR_Y515_V520F_YF]")
0.569
>>> measured("LVIIKYLPEWT [PSEN1_Y240_F237I]")
1.75
>>> measured("NDHHFYLEGTL [ALDOB_Y223_V222F]")
0.398
